Please provide measured % loss (by weight) of stabilizer for the entries that follow.
# ASSAY EXPLANATION: Stabilizer loss on milling into polycarbonate resin
# CONDITION INFO: milling at 400° F. (240° C.), 15 minutes, spectrophotometric

Answered cases to consult:
CC(C)(c1ccccc1)c1cc(-n2nc3ccc(C(C)(C)c4ccccc4)cc3n2)c(O)c(C(C)(C)c2ccccc2)c1 < 3%
CC(C)(C)CC(C)(C)c1ccc(O)c(-n2nc3ccccc3n2)c1 40%
CC(C)(c1ccccc1)c1cc(-n2nc3ccccc3n2)c(O)c(C(C)(C)c2ccccc2)c1 < 3%

Would you kindly look at the next entry?
Lab note: measured % loss (by weight) of stabilizer of CC(C)(C)c1cc(-n2nc3ccc(C(C)(C)c4ccccc4)cc3n2)c(O)c(C(C)(C)C)c1 was < 3%
